- systemUnderTest: T1, 4H953-AA
- T1 chain: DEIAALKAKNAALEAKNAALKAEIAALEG
- methodSummary: two-hybrid library CCmax;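 also: natural log of median RNA to DNA barcode read ratio; higher means stronger binding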
- testContext: mean of both orientations
property: interaction score

binder="DKNAALKAKIAALEAEIAALKAKNAALEG [4H3855-AA]" property="interaction score" numericvalue=-1.89
binder="DKNAALKAKNAALEAKIAALEAEIAALEG [4H4001-AA]" property="interaction score" numericvalue=-1.79
binder="DEIAALKAEIAALEAKNAALEAKNAALKG [4H568-AA]" property="interaction score" numericvalue=-1.78
binder="DKNAALEAKIAALKAKIAALEAENAALEG [4H3427-AA]" property="interaction score" numericvalue=-1.66
binder="DENAALEAENAALKAKIAALKAEIAALEG [4H1257-AA]" property="interaction score" numericvalue=-1.45
